B1: NLV2 TCR alpha chain (CDR3α only) (parent)
chain: AGPMKTSYDKVI

- Variants of: B1
- protocol-description: T-Switch: Jurkat TCRβ−/− cells expressing a CDR3 saturation-mutagenesis library, stained with two peptide-HLA-A*02:01 tetramers (original and novel peptide) plus anti-CD3, FACS-sorted into four gates, gDNA sequenced
- applied-conditions: with both tetramers (double-negative gate, binds neither): HLA-A*02:01 with … and with …, tetramers 1 µg/mL, 30 min on ice, SP, DP and SW gates expanded about 10 days between rounds ('two to three rounds of selection' in the Methods), gate DN: OPPOSITE: higher = more of the variant in the gate that binds neither peptide = LESS binding (or no expression; inferred). Fold enrichment of the CDR3 variant in one FACS gate of a two-tetram, unresolved parent, parent is a CDR3 fragment, scale: fold enrichment, numbering: sequential-on-construct, sequence starts at 1
Classify by measured enrichment: Yes if it is equal to or exceeds 1, No if it is smaller.

Here's what some known entries look like.
1. […] (CDR3 as printed); S7D derived by comparing it with the table's wild-type CDR3 AGPMKTSYDKVI :: No
2. […] (CDR3 as printed); A1Y derived by comparing it with the table's wild-type CDR3 AGPMKTSYDKVI :: No
3. […] (CDR3 as printed); I12Q derived by comparing it with the table's wild-type CDR3 AGPMKTSYDKVI :: Yes
4. […] (CDR3 as printed); I12H derived by comparing it with the table's wild-type CDR3 AGPMKTSYDKVI :: Yes
5. […] (CDR3 as printed); K10C derived by comparing it with the table's wild-type CDR3 AGPMKTSYDKVI :: Yes

[ask] Identify whether the reported enrichment of the following variant is 1 or greater: […] (CDR3 as printed); K5A derived by comparing it with the table's wild-type CDR3 AGPMKTSYDKVI
[reply] No

[ask] Assess whether reported enrichment for […] (CDR3 as printed); T6L derived by comparing it with the table's wild-type CDR3 AGPMKTSYDKVI sits at 1 or higher.
[reply] Yes

[ask] Check this variant for enrichment at or above 1: […] (CDR3 as printed); A1W derived by comparing it with the table's wild-type CDR3 AGPMKTSYDKVI
[reply] No

[ask] Is the recorded value of enrichment equal to or greater than 1 for this variant? […] (CDR3 as printed); G2Y derived by comparing it with the table's wild-type CDR3 AGPMKTSYDKVI
[reply] No

[ask] Entry […] (CDR3 as printed); P3L derived by comparing it with the table's wild-type CDR3 AGPMKTSYDKVI : is its enrichment no less than 1?
[reply] Yes

[ask] API: above_or_equal(metric=enrichment, cutoff=1) for item […] (CDR3 as printed); G2K derived by comparing it with the table's wild-type CDR3 AGPMKTSYDKVI
[reply] No

[ask] Hi, just wondering whether […] (CDR3 as printed); D9K derived by comparing it with the table's wild-type CDR3 AGPMKTSYDKVI shows enrichment of 1 or higher.
[reply] No
